Test system: WT HIV-1 (IIIB)
Reported Conditions: MT-4 cells
Readout Name: SI IIIB (CC50/EC50)

compound="Cc1cc(C#N)cc(C)c1Oc1nc(NC2CCN(Cc3ccc(S(N)(=O)=O)cc3)CC2)nc2c1CCC2 [13d1]" measured=>208333
compound="Cc1cc(C#N)cc(C)c1Oc1nc(NC2CCN(Cc3ccc(C(N)=O)cc3)CC2)nc2c1SCCC2 [13f2]" measured=>14767
compound="Cc1cc(C#N)cc(C)c1Oc1nc(NC2CCN(Cc3ccc(C(N)=O)cc3)CC2)nc2c1CCC2 [13d2]" measured=>40984
compound="Cc1cc(C#N)cc(C)c1Oc1nc(NC2CCN(Cc3ccncc3)CC2)nc2c1SCC2 [13a4]" measured=≥40104
compound="Cc1cc(C#N)cc(C)c1Oc1nc(NC2CCN(Cc3cccc(C(N)=O)c3)CC2)nc2c1SCC2 [13a6]" measured=≥8048
compound="Cc1cc(C#N)cc(C)c1Oc1nc(NC2CCN(Cc3ccc(S(C)(=O)=O)cc3)CC2)nc2c1CCCC2 [13e3]" measured=>33333
compound="Cc1cc(C#N)cc(C)c1Oc1nc(NC2CCN(Cc3ccncc3)CC2)nc2c1CCC2 [13d4]" measured=>147059
compound="Cc1cc(C#N)cc(C)c1Oc1nc(NC2CCN(Cc3ccc(NS(C)(=O)=O)cc3)CC2)nc2c1CSC2 [13b5]" measured=>19670
compound="Cc1cc(C#N)cc(C)c1Oc1nc(NC2CCN(Cc3ccc(N)cc3)CC2)nc2c1CSC2 [13b4]" measured=>30377
compound="Cc1cc(C#N)cc(C)c1Oc1nc(NC2CCN(Cc3ccc(C(N)=O)cc3)CC2)nc2c1CCCC2 [13e2]" measured=>38709
compound="Cc1cc(C#N)cc(C)c1Oc1nc(NC2CCN(Cc3ccc(S(N)(=O)=O)cc3)CC2)nc2c1CCCC2 [13e1]" measured=>37879
compound="Cc1cc(C#N)cc(C)c1Oc1nc(NC2CCN(Cc3ccc(C(N)=O)cc3)CC2)nc2c1COC2 [13c2]" measured=>156250
compound="Cc1cc(C#N)cc(C)c1Oc1nc(NC2CCN(Cc3ccc([N+](=O)[O-])cc3)CC2)nc2c1COC2 [13c5]" measured=≥1497
compound="Cc1cc(C#N)cc(C)c1Oc1nc(NC2CCN(Cc3ccc(S(C)(=O)=O)cc3)CC2)nc2c1SCCC2 [13f3]" measured=≥872
compound="Cc1cc(C#N)cc(C)c1Oc1nc(NC2CCN(Cc3ccc(S(N)(=O)=O)cc3)CC2)nc2c1SCCC2 [13f1]" measured=≥54889

* * *

Test Details: in vitro
Reported Conditions: human
Readout Name: CC50

smi=Cc1cc(C#N)cc(C)c1Oc1nc(NC2CCN(Cc3cccc(C(N)=O)c3)CC2)nc2c1SCCC2 measured="> 4.59 µM"

* * *

Test Details: Aqueous solubility measured by HPLC
Type: physicochemical
Reported Conditions: aqueous solution, pH 2
Readout Name: solubility (µg/mL)

molecule="Cc1cc(C#N)cc(C)c1Oc1nc(Nc2ccc(C#N)cc2)nc(N)c1Br [ETV, etravirine]" units_symbol=µg/mL measured=127

* * *

Test system: NNRTI-resistant strain K103N+Y181C (RES056)
Reported Conditions: MT-4 cells
SI RES056 (CC50/EC50): recorded values
Readout Name: SI RES056 (CC50/EC50)

smi=Cc1cc(C#N)cc(C)c1Oc1nc(NC2CCN(Cc3ccc(S(N)(=O)=O)cc3)CC2)nc2c1CCC2 readout_name="SI RES056 (CC50/EC50)" measured=>9091
smi=Cc1cc(C#N)cc(C)c1Oc1nc(NC2CCN(Cc3ccc(C(N)=O)cc3)CC2)nc2c1CCC2 readout_name="SI RES056 (CC50/EC50)" measured=>1448
smi=Cc1cc(C#N)cc(C)c1Oc1nc(NC2CCN(Cc3cccc(C(N)=O)c3)CC2)nc2c1SCC2 readout_name="SI RES056 (CC50/EC50)" measured=≥355
smi=Cc1cc(C#N)cc(C)c1Oc1nc(NC2CCN(Cc3ccncc3)CC2)nc2c1CCC2 readout_name="SI RES056 (CC50/EC50)" measured=>5020
smi=Cc1cc(C#N)cc(C)c1Oc1nc(NC2CCN(Cc3ccc(C(N)=O)cc3)CC2)nc2c1SCCC2 readout_name="SI RES056 (CC50/EC50)" measured=>476
smi=Cc1cc(C#N)cc(C)c1Oc1nc(NC2CCN(Cc3ccc(S(C)(=O)=O)cc3)CC2)nc2c1SCCC2 readout_name="SI RES056 (CC50/EC50)" measured=≥34.6
smi=Cc1cc(C#N)cc(C)c1Oc1nc(NC2CCN(Cc3ccc(S(N)(=O)=O)cc3)CC2)nc2c1SCCC2 readout_name="SI RES056 (CC50/EC50)" measured=≥3650
smi=Cc1cc(C#N)cc(C)c1Oc1nc(NC2CCN(Cc3ccc(S(N)(=O)=O)cc3)CC2)nc2c1CCCC2 readout_name="SI RES056 (CC50/EC50)" measured=>342
smi=Cc1cc(C#N)cc(C)c1Oc1nc(NC2CCN(Cc3ccc(NS(C)(=O)=O)cc3)CC2)nc2c1CSC2 readout_name="SI RES056 (CC50/EC50)" measured=>42
smi=Cc1cc(C#N)cc(C)c1Oc1nc(NC2CCN(Cc3ccncc3)CC2)nc2c1SCC2 readout_name="SI RES056 (CC50/EC50)" measured=≥2305
smi=Cc1cc(C#N)cc(C)c1Oc1nc(NC2CCN(Cc3ccc(N)cc3)CC2)nc2c1CSC2 readout_name="SI RES056 (CC50/EC50)" measured=>364
smi=Cc1cc(C#N)cc(C)c1Oc1nc(NC2CCN(Cc3ccc([N+](=O)[O-])cc3)CC2)nc2c1COC2 readout_name="SI RES056 (CC50/EC50)" measured=≥22
smi=Cc1cc(C#N)cc(C)c1Oc1nc(NC2CCN(Cc3ccc(C(N)=O)cc3)CC2)nc2c1CCCC2 readout_name="SI RES056 (CC50/EC50)" measured=>799
smi=Cc1cc(C#N)cc(C)c1Oc1nc(NC2CCN(Cc3ccc(C(N)=O)cc3)CC2)nc2c1COC2 readout_name="SI RES056 (CC50/EC50)" measured=>6039
smi=Cc1cc(C#N)cc(C)c1Oc1nc(NC2CCN(Cc3ccc(S(C)(=O)=O)cc3)CC2)nc2c1CCCC2 readout_name="SI RES056 (CC50/EC50)" measured=>4032

* * *

CC50: recorded values
Test Details: in vitro
Reported Conditions: human
Readout Name: CC50

smi=Cc1cc(C#N)cc(C)c1Oc1nc(N[C@H]2CCN(Cc3ccncc3)C2)nc2ccsc12 measured="> 0.273 µM"
smi=Cc1cc(C#N)cc(C)c1Oc1nc(N[C@@H]2CCN(Cc3ccc(S(C)(=O)=O)cc3)C2)nc2ccsc12 measured="> 0.234 µM"
smi=Cc1cc(C#N)cc(C)c1Oc1nc(N[C@H]2CCN(Cc3ccc(S(N)(=O)=O)cc3)C2)nc2ccsc12 measured="> 0.233 µM"
smi=Cc1cc(C#N)cc(C)c1Oc1nc(N[C@@H]2CCN(Cc3cccc(C(N)=O)c3)C2)nc2ccsc12 measured="> 0.25 µM"
smi=Cc1cc(C#N)cc(C)c1Oc1nc(N[C@@H]2CCN(Cc3ccc(C(N)=O)cc3)C2)nc2ccsc12 measured="> 0.25 µM"
